Data provenance: the supplement of paper PMC10567573

B1: C22orf31 (parent)
chain: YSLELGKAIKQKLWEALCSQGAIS

# Variants of: B1
# Assay protocol: protein stability index of a GFP-peptide fusion (GPS, HEK-293T) (PSI 1-6); higher = more stable;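 note: lentivirally expressed fusions sorted by FACS into six bins by GFP to DsRed ratio, PSI derived from sequencing read proportions per bin multiplied by bin number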
# Study conditions: c terminus: a fixed tail appended
# binarize protein stability index: threshold 2 inclusive, high side Yes, low side No

Here are 5 variants together with their reported answers.
Record `E4V` ; criterion: protein stability index no lower than 2. Met?
Yes

Could you do the same for `L17S` , please?
Yes

Could you do the same for `Y1R` , please?
Yes

Could you do the same for `W14H` , please?
No

Could you do the same for `Y1F` , please?
Yes

***
Record `S19A` ; criterion: protein stability index no lower than 2. Met?
Yes

Could you do the same for `I23N` , please?
No

Could you do the same for `K7I` , please?
Yes

Could you do the same for `I9C` , please?
No

Could you do the same for `S2R` , please?
Yes

Could you do the same for `Y1C` , please?
Yes

Could you do the same for `L3P` , please?
No

Could you do the same for `A16W` , please?
Yes

Could you do the same for `S19C` , please?
Yes

Could you do the same for `K10E` , please?
Yes

Could you do the same for `Q11R` , please?
Yes

Could you do the same for `L13F` , please?
No

Could you do the same for `Q20N` , please?
No

Could you do the same for `E15G` , please?
No

Could you do the same for `E15C` , please?
Yes

Could you do the same for `A8V` , please?
Yes
